test_target: C5AR1 (Homo sapiens, UniProt P21730)
Sequence (P21730 whole entry): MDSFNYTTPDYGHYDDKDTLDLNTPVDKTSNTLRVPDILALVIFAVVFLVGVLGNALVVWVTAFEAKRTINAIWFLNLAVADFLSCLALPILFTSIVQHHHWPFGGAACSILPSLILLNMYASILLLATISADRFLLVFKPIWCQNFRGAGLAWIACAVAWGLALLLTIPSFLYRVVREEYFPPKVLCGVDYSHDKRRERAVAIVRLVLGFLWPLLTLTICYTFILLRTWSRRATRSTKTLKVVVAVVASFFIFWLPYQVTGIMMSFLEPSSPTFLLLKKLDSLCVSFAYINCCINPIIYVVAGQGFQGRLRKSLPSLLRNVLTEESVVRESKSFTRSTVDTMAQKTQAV
test_method_notes: In vitro assay: antagonism of C5a-induced beta-arrestin recruitment (PathHunter) in CHO-K1 C5AR1 beta-arrestin cell line
test_conditions: antagonistic activity, 1-10 nM C5a agonist, geometric mean where several measurements, read-out: C5aR IC50
Experimental: 5 μl Antagonist at 6-fold end concentration or DMSO control is added to assay medium and subsequently 5 μl 1-10 nM C5a agonist at 6 fold end concentration. Cells are centrifuged for 1 min at 1000 rpm and incubated for 1.5 hour in at 37° C. […] Plates are centrifuged for 1 min at 1000 rpm and incubated for 45 minutes at RT before being measured on a Fluostar Optima, BMG Labtech. IC50 values are calculated from a serial dilution range of antagonist using inhouse software and given in nmol/l. […]
pIC50: −log10 of the molar value.
Quick reference for pIC50 among some compounds
measure_name: pIC50

compound	measure_name	result_value
Cc1cccc(F)c1N1CCC(N2Cc3c(cnn3C3CC3)N(Cc3ncccc3C(F)(F)F)C2=O)CC1 [Example 215]	pIC50	6.84
Cc1cccc(F)c1N1CCC(N2Cc3cn(CC(C)(C)F)nc3N(Cc3ccccc3C(F)(F)F)C2=O)CC1 [Example 168]	pIC50	8.22
COc1nccc(C)c1N1CCC(N2C(=O)N(Cc3ncccc3C(F)(F)F)c3nn(C)cc3C2C)CC1 (single isomer, unassigned) [Example 356]	pIC50	8.30
Cc1cccc(F)c1N1CCC(N2Cc3cn(C(C)(C)C(N)=O)nc3N(Cc3ccccc3C(F)(F)F)C2=O)CC1 [Example 84]	pIC50	7.13
Cc1cccc(F)c1N1CCC(N2Cc3cn(C)nc3N(Cc3nc(F)ccc3C(F)(F)F)C2=O)CC1 [Example 36]	pIC50	8.15
COc1nccc(C)c1N1CCC(N2C(=O)N(Cc3ccccc3C(F)(F)F)c3cn(C)nc3C2C)CC1 (single isomer, unassigned) [Example 298]	pIC50	7.54
Cc1cccc(F)c1N1CCC(N2Cc3cn(C)nc3N(Cc3nc(Cl)ccc3C(F)(F)F)C2=O)CC1 [Example 35]	pIC50	8.05
